Target: human M2R (Homo sapiens, UniProt P08172)
Construct: host or cells: HEK293 (CRL-1573, ATCC), transient
Sequence (P08172 1-466): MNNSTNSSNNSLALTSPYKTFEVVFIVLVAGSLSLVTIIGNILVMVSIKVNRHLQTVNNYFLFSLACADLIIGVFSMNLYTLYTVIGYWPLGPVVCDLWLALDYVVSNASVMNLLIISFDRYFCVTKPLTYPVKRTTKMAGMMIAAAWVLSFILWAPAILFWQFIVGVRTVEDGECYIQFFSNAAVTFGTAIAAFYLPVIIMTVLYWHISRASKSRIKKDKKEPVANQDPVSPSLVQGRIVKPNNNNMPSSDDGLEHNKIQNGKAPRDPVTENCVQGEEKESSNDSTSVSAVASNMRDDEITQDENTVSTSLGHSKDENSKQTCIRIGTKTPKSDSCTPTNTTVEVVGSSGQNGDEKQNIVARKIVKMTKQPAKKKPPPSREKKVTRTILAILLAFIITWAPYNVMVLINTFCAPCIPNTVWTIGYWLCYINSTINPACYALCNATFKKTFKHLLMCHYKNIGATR
Assay: [3H]Scopolamine radioligand competition binding at M2R
Conditions: Ki at M2Rs, full dose-response, interpolated
MEASURED_ENDPOINT: Ki (µM)
Numeric answer only, unit µM assumed.

Fill in the blank: the reported Ki of CC(C(=O)c1ccccc1)N1CCCC1 (stereo not drawn) [α-PPP, α-Pyrrolidinopropiophenone] is ____.
73
